Could you please report measured IC50 for the items listed next?
# experimental.target: Rac GTPase-activating protein 1 (Homo sapiens)
# Sequence (Q9H0H5 whole entry): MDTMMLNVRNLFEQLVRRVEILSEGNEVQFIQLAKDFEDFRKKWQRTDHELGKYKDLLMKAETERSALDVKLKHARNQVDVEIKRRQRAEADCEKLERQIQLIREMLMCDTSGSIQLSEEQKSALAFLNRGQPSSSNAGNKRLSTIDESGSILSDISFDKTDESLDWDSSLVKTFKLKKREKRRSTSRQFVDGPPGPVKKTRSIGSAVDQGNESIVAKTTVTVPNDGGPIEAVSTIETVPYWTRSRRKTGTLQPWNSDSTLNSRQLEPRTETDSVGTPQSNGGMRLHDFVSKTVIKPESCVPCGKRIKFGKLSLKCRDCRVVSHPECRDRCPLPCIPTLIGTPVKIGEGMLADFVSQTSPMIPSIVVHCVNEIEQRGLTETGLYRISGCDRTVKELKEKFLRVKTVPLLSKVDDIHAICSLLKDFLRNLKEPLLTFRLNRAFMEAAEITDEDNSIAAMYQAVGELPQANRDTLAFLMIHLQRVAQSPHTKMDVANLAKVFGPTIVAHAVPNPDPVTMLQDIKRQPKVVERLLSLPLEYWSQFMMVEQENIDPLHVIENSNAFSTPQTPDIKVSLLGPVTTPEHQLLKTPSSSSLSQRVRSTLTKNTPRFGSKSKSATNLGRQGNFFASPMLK
# test.method.notes: blockers of MgcRacGAP-driven Rac1 GTP hydrolysis – biochemical, ADP Hunter fluorescence, primary and confirmatory, confirmation (AID 624330)
# Format: functional
Activity calls are given as the source filed them. No rule for the calls is given here.

Can you give me IC50 for all of these, one by one?
1. CN(Cc1ccccc1)Cc1c(O)ccc2ccccc12
2. Cc1ccc(/C=C/C(=O)Nc2ccc([N+](=O)[O-])c(NC(=O)/C=C/c3ccc(C)o3)c2)o1
3. COc1cc(/C=C/C(=O)OCC(=O)NC2CCS(=O)(=O)C2)ccc1O (stereo unspecified)

Response line:
["89.3 µM (active)", "165 µM (active)", "47.1 µM (active)"]

Provide IC50 for all items below, preserving their order.
1. COc1ccc(/C=N/NC(=O)c2cnccn2)cc1O
2. Cc1ccnc(Nc2nc(-c3ccc(O)cc3)cs2)c1

Response line:
1: 85.6 µM (active); 2: 105 µM (active)

Please report IC50 for every entry that follows.
1. COc1cc(C(C)n2nnc3ccccc32)ccc1O (stereo unspecified)
2. CCc1cc(-c2n[nH]cc2-c2nc3ccccc3n2C)c(O)cc1O

Response line:
1: 108 µM (active); 2: 83.6 µM (active)

Batch: IC50 for all items listed.
1. Cn1c(=O)[nH]c(=O)c2c1nc(S)n2CCCc1ccccc1
2. CCN(CC)c1ccc(/N=C/c2c(C)[nH]c3ccccc23)cc1
3. O=C(CNC(=O)c1ccco1)N/N=C/c1ccc(O)cc1O
4. COc1ccc(CN2CCCC(C(=O)N3CCCC3)C2)cc1 (stereo unspecified)

Response line:
1: 19.7 µM (active); 2: 43.7 µM (active); 3: 104 µM (active); 4: 109 µM (active)
